# Test system: B-cell line
# test_description: Cytotoxicity against Balb/c mouse B cells assessed as decrease cell survival at 1 uM by MTT assay
# Assay type: cell-based
measured_quantity: Activity

CC1=C2[C@H]3OC(=O)[C@@H](C)[C@@H]3CC[C@@]2(C)C=CC1=O :: Non-Toxic
Cc1cc(O)c(C)c2c1CC[C@H]1[C@H](C)C(=O)O[C@@H]21 :: Toxic
CCCCCOc1cc(C)c2c(c1C)[C@@H]1OC(=O)[C@@H](C)[C@@H]1CC2 :: Toxic
Cc1cc(OC(=O)CCC(=O)Nc2ccccc2Cl)c(C)c2c1CC[C@H]1[C@H](C)C(=O)O[C@@H]21 :: Non-Toxic

---

# Test system: B-cell line
# test_description: Immunosuppressive activity in Balb/c mouse B cells assessed as inhibition of LPS-induced cell proliferation at 1 uM after 48 hrs by MTT assay relative to control
# Assay type: functional
Categories are defined by ranges of inhibition at 1 µM, namely lower range: < 20%; middle range: ≥ 20% and < 40%; upper range: ≥ 40%

// query Quick check: band for CCCCCCCC(=O)Oc1cc(C)c2c(c1C)[C@@H]1OC(=O)[C@@H](C)[C@@H]1CC2
// result middle range

// query Sort Cc1cc(OC(=O)c2ccccc2)c(C)c2c1CC[C@H]1[C@H](C)C(=O)O[C@@H]21 into one of the categories.
// result lower range

// query Sort into band: Cc1cc(OC(=O)CCC(=O)Nc2ccccc2F)c(C)c2c1CC[C@H]1[C@H](C)C(=O)O[C@@H]21
// result middle range

// query Class? Entry: CCCOc1cc(C)c2c(c1C)[C@@H]1OC(=O)[C@@H](C)[C@@H]1CC2
// result upper range

// query Which bin should I file CCCCCOc1cc(C)c2c(c1C)[C@@H]1OC(=O)[C@@H](C)[C@@H]1CC2 under?
// result middle range

// query Bin? Cc1cc(OC(=O)C(C)(C)C)c(C)c2c1CC[C@H]1[C@H](C)C(=O)O[C@@H]21
// result upper range

// query Where would CCOc1cc(C)c2c(c1C)[C@@H]1OC(=O)[C@@H](C)[C@@H]1CC2 land among the classes by reported inhibition at 1 µM?
// result middle range

// query Lab note: sort Cc1cc(OC(=O)CCC(=O)Nc2ccccc2Cl)c(C)c2c1CC[C@H]1[C@H](C)C(=O)O[C@@H]21 into the matching inhibition at 1 µM band.
// result middle range

// query Any idea which band Cc1cc(OCc2ccccc2)c(C)c2c1CC[C@H]1[C@H](C)C(=O)O[C@@H]21 is in?
// result upper range

---

# System: B-cell line
# test_description: Immunosuppressive activity in Balb/c mouse B cells assessed as inhibition of LPS-induced cell proliferation at 1 uM after 48 hrs by MTT assay relative to control
# Assay type: functional
Label criterion met when inhibition at 1 µM is at or above 10%; anything below gets criterion not met.

Worked examples follow.
CCC(=O)Oc1cc(C)c2c(c1C)[C@@H]1OC(=O)[C@@H](C)[C@@H]1CC2 :: criterion met
COc1cc(C)c2c(c1C)[C@@H]1OC(=O)[C@@H](C)[C@@H]1CC2 :: criterion met
CCCC(=O)Oc1cc(C)c2c(c1C)[C@@H]1OC(=O)[C@@H](C)[C@@H]1CC2 :: criterion met
CCCCC(=O)Oc1cc(C)c2c(c1C)[C@@H]1OC(=O)[C@@H](C)[C@@H]1CC2 :: criterion not met

Next:
// query Given the entry CC(=O)Oc1cc(C)c2c(c1C)[C@@H]1OC(=O)[C@@H](C)[C@@H]1CC2 , answer whether its inhibition at 1 µM meets or surpasses 10%.
// result criterion met

Entry source: ChEMBL document CHEMBL4138056
